test system: mice; assay: Neuropharmacological Assay (SmartCube); assay type: in vivo; conditions: mice, i.p. 15 min before test, most efficacious dose(s) of 3 doses
measured parameter: AG: analgesic (SmartCube probability)

Worked examples, 5 compounds total:
{"columns": ["compound", "measured parameter", "obs value"],
 "data": [
  ["CNC[C@@H]1OCCc2c(F)ccc(F)c21", "AG: analgesic (SmartCube probability)", "++ (5%≤ ++ <25%)"],
  ["CNC[C@@H]1OCCc2cccc(C)c21", "AG: analgesic (SmartCube probability)", "++ (5%≤ ++ <25%)"],
  ["CNC[C@H]1OCCc2c(OC)cccc21", "AG: analgesic (SmartCube probability)", "++ (5%≤ ++ <25%)"],
  ["CNC[C@@H]1OCCc2c(O)cc3c(c21)OCO3 (single isomer, unassigned)", "AG: analgesic (SmartCube probability)", "+ (LOQ≤ + <5%)"],
  ["CNC[C@H]1OC[C@@H](O)c2cccc(F)c21", "AG: analgesic (SmartCube probability)", "+ (LOQ≤ + <5%)"]
]}

Look up AG: analgesic (SmartCube probability): CNC(C)C1OCCc2ccc3c(c21)OCO3 (stereo not shown)
++ (5%≤ ++ <25%)

Could you share which AG: analgesic (SmartCube probability) value was measured for `CNC[C@H]1OCCc2cc(F)ccc21` ?
++ (5%≤ ++ <25%)

Sample CNC[C@H]1OCCc2c(O)cc3c(c21)OCO3 (single isomer, unassigned) — what was its AG: analgesic (SmartCube probability)?
+ (LOQ≤ + <5%)

----------
test system: mice; assay: Neuropharmacological Assay (SmartCube); assay type: in vivo; details: mice, i.p. 15 min before test, most efficacious dose(s) of 3 doses
measured parameter: DP: anti-depressant (SmartCube probability)

// solved cases for DP: anti-depressant (SmartCube probability) follow
{"columns": ["molecule", "obs value"],
 "data": [
  ["CNC[C@@H]1OCCc2cc(F)ccc21", "++ (5%≤ ++ <25%)"],
  ["NC[C@@H]1OCCc2ccc3c(c21)OCO3", "++ (5%≤ ++ <25%)"],
  ["NC[C@H]1OCCc2cccc(Cl)c21 [Example 70, (S)-(8-chloroisochroman-1-yl)methanamine]", "++ (5%≤ ++ <25%)"],
  ["CNC[C@H]1OCc2cccc(F)c21", "++ (5%≤ ++ <25%)"],
  ["CNC(C)C1OCCc2ccc3c(c21)OCO3 (centres unmarked)", "+ (LOQ≤ + <5%)"]
]}

Can you look up the measured DP: anti-depressant (SmartCube probability) of `NC[C@H]1OCCc2ccc3c(c21)OCO3` for me?
++ (5%≤ ++ <25%)

So what's the measured DP: anti-depressant (SmartCube probability) for this one? CNC[C@@H]1OCCc2c(O)cc3c(c21)OCO3 (single isomer, unassigned)
+ (LOQ≤ + <5%)

Given the molecule `CNC[C@@H]1OCCc2ccc(Cl)cc21` , what is its reported DP: anti-depressant (SmartCube probability)?
++ (5%≤ ++ <25%)

What does the record list as DP: anti-depressant (SmartCube probability) for `CNC[C@H]1OCCc2cccc(C#N)c21` ?
+ (LOQ≤ + <5%)

# get_value(readout='DP: anti-depressant (SmartCube probability)', item= `CNC[C@H]1OCCc2c(C#N)cccc21` )
++ (5%≤ ++ <25%)

----------
tested on: mice; experiment: Neuropharmacological Assay (SmartCube); assay type: in vivo; conditions: mice, i.p. 15 min before test, most efficacious dose(s) of 3 doses
measured parameter: SD: sedative hypnotic (SmartCube probability)

{"columns": ["compound", "obs value"],
 "data": [
  ["CNC[C@H]1OCCc2c1cccc2C(F)(F)F", "+ (LOQ≤ + <5%)"],
  ["CNC[C@@H]1OCCc2cc(Cl)ccc21", "+ (LOQ≤ + <5%)"],
  ["CNC[C@H]1OCC(C)(C)c2ccccc21", "++ (5%≤ ++ <25%)"],
  ["CNC[C@@H]1OCCc2cccc(F)c21", "++ (5%≤ ++ <25%)"],
  ["CNC[C@H]1OCCc2cc(Cl)ccc21", "+ (LOQ≤ + <5%)"]
]}

What does the data say about its SD: sedative hypnotic (SmartCube probability)? Entry: `CNC[C@H]1OC[C@@H](O)c2cccc(F)c21`
+ (LOQ≤ + <5%)

// SD: sedative hypnotic (SmartCube probability) lookup, key: `CNC[C@H]1OCCc2c(F)ccc(F)c21`
++ (5%≤ ++ <25%)

Suppose we examine the compound `NC[C@H]1OCCc2c1ccc1c2OCO1` ; what SD: sedative hypnotic (SmartCube probability) value has been reported?
+ (LOQ≤ + <5%)

Reported SD: sedative hypnotic (SmartCube probability) for CC(N)C1OCCc2ccc3c(c21)OCO3 (centres unmarked) : what is it?
+ (LOQ≤ + <5%)

Form field: reported SD: sedative hypnotic (SmartCube probability) of Cc1cccc2c1[C@@H](CN)OCC2 [Example 74, (S)-(8-methylisochroman-1-yl)methanamine]
++ (5%≤ ++ <25%)

Consider the compound `CNC[C@@H]1OCCc2ccc3c(c21)CCO3` and give its measured SD: sedative hypnotic (SmartCube probability).
++ (5%≤ ++ <25%)

----------
tested on: mice; experiment: Neuropharmacological Assay (SmartCube); type: in vivo; settings: mice, i.p. 15 min before test, most efficacious dose(s) of 3 doses
measured parameter: DP: anti-depressant (SmartCube probability)

The following molecules have reported results that may help.
{"columns": ["molecule", "obs value"],
 "data": [
  ["CNC[C@H]1OC[C@H](O)c2ccc3c(c21)OCO3 (single isomer, unassigned) [Example 112]", "++ (5%≤ ++ <25%)"],
  ["CNC[C@@H]1OCC(C)(C)c2ccccc21 [Example 24]", "++ (5%≤ ++ <25%)"],
  ["NC[C@@H]1OCCc2cccc(Cl)c21 [Example 71, (R)-(8-chloroisochroman-1-yl)methanamine]", "+ (LOQ≤ + <5%)"],
  ["CNC[C@@H]1OC[C@@H](C)c2ccccc21 [Example 20]", "++ (5%≤ ++ <25%)"]
]}

Give its DP: anti-depressant (SmartCube probability) value. Item: CNC[C@H]1OC[C@@H](O)c2cccc(F)c21 [Example 98]
+ (LOQ≤ + <5%)

Which DP: anti-depressant (SmartCube probability) value is on record for CCNC[C@@H]1OCCc2cccc(F)c21 [Example 87] ?
++ (5%≤ ++ <25%)

I would be grateful if you could share the reported DP: anti-depressant (SmartCube probability) for CNC[C@@H]1OC[C@H](O)c2cccc(F)c21 [Example 99] .
+ (LOQ≤ + <5%)

Which measured DP: anti-depressant (SmartCube probability) value corresponds to NC[C@@H]1OCCc2cc(F)ccc21 [Example 34, (R)-(6-fluoroisochroman-1-yl)methanamine] ?
++ (5%≤ ++ <25%)

Quick check: DP: anti-depressant (SmartCube probability) of CNC[C@H]1OCCc2cccc(C)c21 [Example 40] ?
++ (5%≤ ++ <25%)

Quick check: DP: anti-depressant (SmartCube probability) of CNC[C@@H]1OCCc2c(OC)cccc21 [Example 63] ?
++++ (50%≤ ++++)

----------
tested on: mice; assay: Neuropharmacological Assay (SmartCube); assay type: in vivo; conditions: mice, i.p. 15 min before test, most efficacious dose(s) of 3 doses
measured parameter: AG: analgesic (SmartCube probability)

{"columns": ["compound", "measured parameter", "obs value"],
 "data": [
  ["CNC[C@H]1OCCc2c(C#N)cccc21 [Example 46]", "AG: analgesic (SmartCube probability)", "+ (LOQ≤ + <5%)"],
  ["CNC[C@@H]1OCCc2ccc3c(c21)OCO3 [Example 2]", "AG: analgesic (SmartCube probability)", "++ (5%≤ ++ <25%)"],
  ["CNC[C@@H]1OCCc2c(Cl)cccc21 [Example 33]", "AG: analgesic (SmartCube probability)", "++ (5%≤ ++ <25%)"],
  ["NC[C@@H]1OCCc2cccc(Cl)c21 [Example 71, (R)-(8-chloroisochroman-1-yl)methanamine]", "AG: analgesic (SmartCube probability)", "++ (5%≤ ++ <25%)"],
  ["NC[C@H]1OCCc2cccc(Cl)c21 [Example 70, (S)-(8-chloroisochroman-1-yl)methanamine]", "AG: analgesic (SmartCube probability)", "++ (5%≤ ++ <25%)"],
  ["CNC[C@H]1OCCc2ccc3c(c21)OCC3 [Example 106]", "AG: analgesic (SmartCube probability)", "+ (LOQ≤ + <5%)"],
  ["CNC[C@@H]1OCCc2ccc3c(c21)COC3 [Example 109]", "AG: analgesic (SmartCube probability)", "+ (LOQ≤ + <5%)"],
  ["CNC[C@H]1OCCc2ccc3c(c21)CCO3 [Example 108]", "AG: analgesic (SmartCube probability)", "+ (LOQ≤ + <5%)"]
]}

Enter reported AG: analgesic (SmartCube probability) observed with mice for Cc1cccc2c1CCO[C@@H]2CN [Example 72, (S)-(5-methylisochroman-1-yl)methanamine]
+ (LOQ≤ + <5%)

Hello, I am looking for reported AG: analgesic (SmartCube probability) with mice for CC(N)C1OCCc2ccc3c(c21)OCO3 (stereo not drawn) [Example 55] . Could you help?
++ (5%≤ ++ <25%)

Recall the recorded AG: analgesic (SmartCube probability) for CNC[C@@H]1OCC(C)(C)c2ccccc21 [Example 24] with mice and state it.
++ (5%≤ ++ <25%)

Recall the recorded AG: analgesic (SmartCube probability) for CNC[C@@H]1OCCc2cc(Cl)ccc21 [Example 81] with mice and state it.
+ (LOQ≤ + <5%)

For the record CNC[C@H]1OCC(C)(C)c2ccccc21 [Example 23] , what value of AG: analgesic (SmartCube probability) is listed for mice?
++ (5%≤ ++ <25%)

AG: analgesic (SmartCube probability) of CNC[C@H]1OCCc2c(F)ccc(F)c21 [Example 30] on mice?
++ (5%≤ ++ <25%)

Recall the recorded AG: analgesic (SmartCube probability) for CNC[C@@H]1OCCCc2cccc(F)c21 [Example 61] with mice and state it.
+ (LOQ≤ + <5%)

Identify the measured AG: analgesic (SmartCube probability) of CNC[C@H]1OC[C@H](O)c2ccc3c(c21)OCO3 (single isomer, unassigned) [Example 112] for mice.
+ (LOQ≤ + <5%)

Test system mice; read-out AG: analgesic (SmartCube probability); what value for CNC[C@H]1OCCc2c1ccc1c2OCO1 [Example 3] ?
++ (5%≤ ++ <25%)

Lookup: AG: analgesic (SmartCube probability) / mice / CNC[C@@H]1OCC(F)(F)c2ccccc21 [Example 28]
++ (5%≤ ++ <25%)

Test system mice; read-out AG: analgesic (SmartCube probability); what value for CNC[C@H]1OCCc2ccc3c(c21)OC(F)(F)O3 [Example 102] ?
++ (5%≤ ++ <25%)

Find the measured AG: analgesic (SmartCube probability): item CNC[C@H]1OCCc2cccc(C)c21 [Example 40] , target or system mice.
+ (LOQ≤ + <5%)
